Would you kindly list pIC50 for each of these compounds?
Test system: H358. non-small cell lung cancer line bearing KRas^G12C oncogenic mutation
Test: Antiproliferative MTS assay, H358 cells
Assay type: cell-based
Conditions: Homo sapiens, NCI-H358, 72 h, compounds 1-23, 47-52 and Reference Example 1 median of experiments, 24-46 estimations and/or preliminary results, read-out: IC50 values: cell proliferation inhibition, H358
Numbers only, as −log10 of the molar value.

Below, 6 compounds whose answers are already recorded.
>  <compound>
CCNC(=O)N1CCc2cc(OC)c(OCCc3ccc(F)c(N)c3)cc2C1c1ccc(C)cc1C (stereo not shown) [Compound 7]

>  <pIC50>
6.05

$$$$
>  <compound>
COc1ccc(CCOc2cc3c(cc2OC)CCN(C(=O)NCc2cocn2)C3c2ccc(F)cc2C)cc1N (stereo not shown) [Compound 17]

>  <pIC50>
6.30

$$$$
>  <compound>
COc1ccc(CCOc2cc3c(cc2OC)CCN(C(=O)NCc2ccon2)C3c2ccc(F)cc2C)cc1N (stereo not shown) [Compound 22]

>  <pIC50>
6.15

$$$$
>  <compound>
COc1cc(CCOc2cc3c(cc2OC)CCN(C(=O)NCC(F)(F)F)C3c2ccc(C)cc2C)ccc1N (stereo not shown) [Compound 43]

>  <pIC50>
6.52

$$$$
>  <compound>
CCNC(=O)N1CCc2cc(OC)c(OCCc3ccc(N)c(OC)c3)cc2C1c1ccc(C(F)(F)F)cc1C (stereo not shown) [Compound 29]

>  <pIC50>
6.30

$$$$
>  <compound>
CCNC(=O)N1CCc2cc(OC)c(OCCc3ccc(OC)c(N)c3)cc2C1c1ccc(Br)cc1C (stereo not shown) [Compound 51]

>  <pIC50>
6.82

$$$$

Short answer on H358. non-small cell lung cancer line bearing KRas^G12C oncogenic mutation for COc1ccc(C2c3cc(OCCc4ccc(OC)c(N)c4)c(OC)cc3CCN2C(=O)N[C@@H](C)C(F)(F)F)c(C)c1 (stereo partly shown) [Compound 50] , pIC50: 6.30

---

System: PANC-1. epithelioid carcinoma of the pancreas cell line bearing KRas^G12D oncogenic mutation
Assay: Antiproliferative MTS assay, PANC-1 cells
Type: cell-based
Details: Homo sapiens, PANC-1, 72 h, compounds 1-23 and 47-52 median of experiments, 24-46 estimations and/or preliminary results, read-out: IC50 values: cell proliferation inhibition, Panc-1
measurement type: pIC50
Give bare numbers, as −log10 of the molar value.

Illustrative cases are given below, each with its answer.
>  <molecule>
COc1ccc(C2c3cc(OCCc4ccc(OC)c(N)c4)c(OC)cc3CCN2C(=O)NCC(F)(F)F)c(C)c1 (stereo not shown)

>  <pIC50>
6.30

$$$$
>  <molecule>
COc1ccc(C2c3cc(OCCc4ccc(N)c(OC)c4)c(OC)cc3CCN2C(=O)NCc2ccon2)c(C)c1 (stereo not shown)

>  <pIC50>
6.52

$$$$
>  <molecule>
COc1ccc(CCOc2cc3c(cc2OC)CCN(C(=O)NCc2ccon2)C3c2ccc(Cl)cc2C)cc1N (stereo not shown)

>  <pIC50>
7.00

$$$$
>  <molecule>
CCNC(=O)N1CCc2cc(OC)c(OCCc3ccc(OC)c(N)c3)cc2C1c1ccc(Br)cc1C (stereo not shown)

>  <pIC50>
7.15

$$$$
>  <molecule>
CCNC(=O)N1CCc2cc(OC)c(OCCc3ccc(OC)c(N)c3)cc2C1c1ccc(C(F)(F)F)cc1C (stereo not shown)

>  <pIC50>
6.70

$$$$

Go through the items and report each one's pIC50.
1. COc1ccc(CCOc2cc3c(cc2OC)CCN(C(=O)NCc2ccon2)C3c2ccc(F)cc2C)cc1N (stereo not shown)
2. COc1ccc(CCOc2cc3c(cc2OC)CCN(C(=O)NCc2ccon2)C3c2ccc(C(F)(F)F)cc2C)cc1N (stereo not shown)

1: 6.22; 2: 6.40

---

For each record, write down the corresponding IC50.
Test system: H358. non-small cell lung cancer line bearing KRas^G12C oncogenic mutation
Assay: Antiproliferative MTS assay, H358 cells
Type: cell-based
Conditions: Homo sapiens, NCI-H358, 72 h, compounds 1-23, 47-52 and Reference Example 1 median of experiments, 24-46 estimations and/or preliminary results, read-out: IC50 values: cell proliferation inhibition, H358
Answers are plain numbers, in nM.

Answered cases to consult:
>  <compound>
CCNC(=O)N1CCc2cc(OC)c(OCCc3ccc(OC)c(N)c3)cc2C1c1ccc(C)cc1C (stereo not shown) [Compound 6]

>  <value units>
nM

>  <test value>
200

$$$$
>  <compound>
CCNC(=O)N1CCc2cc(OC)c(OCCc3ccc(OC)c(N)c3)cc2C1c1ccc(Cl)cc1C (stereo not shown) [Compound 13]

>  <value units>
nM

>  <test value>
300

$$$$
>  <compound>
CCNC(=O)N1CCc2cc(OC)c(OCCc3ccc(OC)c(N)c3)cc2C1c1ccc(C(=O)OC)cc1C (stereo not shown) [Reference Example 1, reference compound]

>  <value units>
nM

>  <test value>
300

$$$$

Briefly, IC50 measured for COc1ccc(C2c3cc(OCCc4ccc(OC)c(N)c4)c(OC)cc3CCN2C(=O)NCC(F)(F)F)c(C)c1 (stereo not shown) [Compound 26] : 400

---

Tested on: H358. non-small cell lung cancer line bearing KRas^G12C oncogenic mutation
Experiment: Antiproliferative MTS assay, H358 cells
Assay type: cell-based
Settings: Homo sapiens, NCI-H358, 72 h, compounds 1-23, 47-52 and Reference Example 1 median of experiments, 24-46 estimations and/or preliminary results, read-out: IC50 values: cell proliferation inhibition, H358
measurement type: pIC50
Answers are plain numbers, as −log10 of the molar value.

Below, 3 compounds whose answers are already recorded.
>  <compound>
COc1ccc(CCOc2cc3c(cc2OC)CCN(C(=O)NCc2ccon2)C3c2ccc(C(F)(F)F)cc2C)cc1N (stereo not shown)

>  <target of assay>
H358. non-small cell lung cancer line bearing KRas^G12C oncogenic mutation

>  <test value>
6.40

$$$$
>  <compound>
COc1ccc(CCOc2cc3c(cc2OC)CCN(C(=O)NCc2cocn2)C3c2ccc(C(F)(F)F)cc2C)cc1N (stereo not shown)

>  <target of assay>
H358. non-small cell lung cancer line bearing KRas^G12C oncogenic mutation

>  <test value>
6.52

$$$$
>  <compound>
CCNC(=O)N1CCc2cc(OC)c(OCCc3ccc(OC)c(N)c3)cc2C1c1ccc(F)cc1C (stereo not shown)

>  <target of assay>
H358. non-small cell lung cancer line bearing KRas^G12C oncogenic mutation

>  <test value>
6.70

$$$$

Proceed to the following item.
Briefly, pIC50 measured for COc1cc(CCOc2cc3c(cc2OC)CCN(C(=O)NCc2ccon2)C3c2ccc(F)cc2C)ccc1N (stereo not shown) : 6.05

---

System: RPMI. myeloma cell line bearing KRas^G12A oncogenic mutation
Assay: Antiproliferative MTS assay, RPMI cells
Format: cell-based
Conditions: 72 h, compounds 1-23 and 47-52 median of experiments, 24-46 estimations and/or preliminary results, read-out: IC50 values: cell proliferation inhibition, RPMI
Give IC50 for every item shown.
One number for each entry, in nM.

Previously resolved entries follow.
>  <compound>
COc1cc(CCOc2cc3c(cc2OC)CCN(C(=O)NCc2cocn2)C3c2ccc(C)cc2C)ccc1N (stereo not drawn)

>  <target of assay>
RPMI. myeloma cell line bearing KRas^G12A oncogenic mutation

>  <IC50 [nM]>
700

$$$$
>  <compound>
COc1cc(CCOc2cc3c(cc2OC)CCN(C(=O)NCc2cocn2)C3c2ccc(C(F)(F)F)cc2C)ccc1N (stereo not drawn)

>  <target of assay>
RPMI. myeloma cell line bearing KRas^G12A oncogenic mutation

>  <IC50 [nM]>
100

$$$$
>  <compound>
COc1ccc(CCOc2cc3c(cc2OC)CCN(C(=O)NCc2ccon2)C3c2ccc(C(F)(F)F)cc2C)cc1N (stereo not drawn)

>  <target of assay>
RPMI. myeloma cell line bearing KRas^G12A oncogenic mutation

>  <IC50 [nM]>
200

$$$$
>  <compound>
COc1cc(CCOc2cc3c(cc2OC)CCN(C(=O)NCc2ccon2)C3c2ccc(Cl)cc2C)ccc1N (stereo not drawn)

>  <target of assay>
RPMI. myeloma cell line bearing KRas^G12A oncogenic mutation

>  <IC50 [nM]>
100

$$$$
>  <compound>
COc1ccc(CCOc2cc3c(cc2OC)CCN(C(=O)NCc2ccon2)C3c2ccc(C)cc2C)cc1N (stereo not drawn)

>  <target of assay>
RPMI. myeloma cell line bearing KRas^G12A oncogenic mutation

>  <IC50 [nM]>
500

$$$$

Provide IC50 values for the following items, in order.
1. COc1ccc(C2c3cc(OCCc4ccc(OC)c(N)c4)c(OC)cc3CCN2C(=O)NCC(F)(F)F)c(C)c1 (stereo not drawn)
2. COc1ccc(CCOc2cc3c(cc2OC)CCN(C(=O)NCc2ccon2)C3c2ccc(F)cc2C)cc1N (stereo not drawn)
3. COc1ccc(CCOc2cc3c(cc2OC)CCN(C(=O)NCc2cocn2)C3c2ccc(Cl)cc2C)cc1N (stereo not drawn)
4. COc1cc(O)cc(CCOc2cc3c(cc2OC)CCN(C(=O)NCc2cocn2)C3c2ccc(C)cc2C)c1 (stereo not drawn)
5. COc1ccc(CCOc2cc3c(cc2OC)CCN(C(=O)NCc2cocn2)C3c2ccc(F)cc2C)cc1N (stereo not drawn)
6. CCNC(=O)N1CCc2cc(OC)c(OCCc3ccc(OC)c(N)c3)cc2C1c1ccc(C(F)(F)F)cc1C (stereo not drawn)
7. COc1cc(CCOc2cc3c(cc2OC)CCN(C(=O)NCC(F)(F)F)C3c2ccc(F)cc2C)ccc1N (stereo not drawn)
8. CCNC(=O)N1CCc2cc(OC)c(OCCc3ccc(OC)c(N)c3)cc2C1c1ccc(Cl)cc1C (stereo not drawn)

1. 200
2. 500
3. 100
4. 1500
5. 200
6. 100
7. 100
8. 100

# return IC50 for each item in the list
1. CCNC(=O)N1CCc2cc(OC)c(OCCc3ccc(N)c(OC)c3)cc2C1c1ccc(OC)cc1C (stereo not drawn)
2. COc1ccc(C2c3cc(OCCc4ccc(OC)c(N)c4)c(OC)cc3CCN2C(=O)NCc2cocn2)c(C)c1 (stereo not drawn)

1: 300; 2: 100
